The values you see were collected from patent US20200031778A1.

- test: Log P by HPLC on reversed phase columns (EEC directive 79/831 Annex V.A8; methods [a], [b], [c])
- Type: physicochemical
Quick list: LogP per entry.
endpoint.name: LogP

# molecule, observed.value
rows = [
    ("N#Cc1cncn1CC(O)c1ccc(Oc2ccc(Br)cn2)cc1Cl (stereo not shown)", "2.63^[a]"),
    ("CC(O)(Cn1cncc1C#N)c1cnc(Oc2ccc(Cl)cc2)cc1C(F)(F)F (stereo not shown)", "3.44^[a]"),
    ("N#Cc1cncn1CC(O)(c1cc(Br)ccc1Cl)C1(F)CC1 (stereo not shown)", "2.45^[a]"),
    ("CCOC(Cn1cncc1Br)c1ccc(Oc2ccc(Br)cc2)cc1Br (stereo not shown)", "4.16^[a]"),
    ("N#Cc1ccc(C(O)(Cn2cncc2C#N)C2(F)CC2)c(Cl)c1 (stereo not shown)", "2.04^[a]"),
    ("N#Cc1cncn1CC(O)(c1c(F)ccc(F)c1Cl)C1(F)CC1 (stereo not shown)", "2.15^[a]"),
    ("C=CCC(O)(Cn1cncc1C#N)C1(F)CC1 (stereo not shown)", "1.56^[a]"),
    ("COc1cc(C(O)(Cn2cncc2C#N)C2(F)CC2)c(F)cc1Cl (stereo not shown)", "2.34^[a]"),
    ("CC(C)(C)C#Cc1ccc(C(O)(Cn2cncc2C#N)C2(Cl)CC2)c(Cl)c1 (stereo not shown)", "3.99^[a]"),
    ("N#Cc1cncn1CC(O)c1ccc(Oc2ccc(Br)cc2)cc1F (stereo not shown)", "3.04^[a]"),
]
